Test system: K-562 leukemia
Assay: NCI-60 one-dose screen, 48 h
Conditions: 10 µM unless noted
Description: Cells are grown in 96 well plates and exposed to the test compound for 48 hours. Compounds are tested at a single concentration, which is 10^-5 M for most compounds. The reported endpoint is percent growth (GI% or GIPRCNT), where numbers from 0 - 100% represent growth inhibition, and numbers from -100% - 0 represent cell death. For example, a value of 40 represents 60% growth inhibition. A value of 0 means no net growth occurred over the course of the experiment. […]
The panel holds about 83,000 compounds, 20% with a hit somewhere; the sample as a whole holds those more often. Activity calls are given as the source filed them. The calls were made as follows: active = growth percent below 10; inactive = the rest.
Respond with a class label; see active, inactive

Below are worked cases with known answers.
{"columns": ["COMPOUND", "DISCRETE_LABEL"],
 "data": [
  ["O=C(O)[C@@H]1c2ccccc2-c2ccccc2[C@H]1C(=O)O", "inactive"],
  ["Cc1ccc(-c2nc3nc(-c4ccccc4)nc(N4CCNCC4)c3o2)cc1", "active"],
  ["O=C(O)CNC1=C(Cl)C(=O)c2ccccc2C1=O", "inactive"],
  ["COc1ccc2nc(NC(=O)CSc3nnc4n3S(=O)(=O)c3ccccc3N4C)sc2c1", "inactive"],
  ["CN(Cc1ccc(C(F)(F)F)cc1)CC(O)C(=O)Nc1ccc(Cl)cc1 (stereo not given)", "active"]
]}

Hey, what did the test say about "Brc1c2c(c(Br)c3ccccc13)CCCC2" ?
inactive

Hey, what did the test say about "Cc1cc2c([nH]1)CSc1cc(S(=O)(=O)c3ccccc3)c(=O)[nH]c1-2" ?
inactive

Hey, what did the test say about "COc1ccc(C/C(C)=C(/c2ccc(OCCN3CCCCC3)cc2)c2ccc(OC(=O)NCc3ccccc3)cc2)cc1" ?
active

Hey, what did the test say about "CN(CCOc1ccc(C#N)cc1)CCOc1ccc(C#N)cc1" ?
inactive

Hey, what did the test say about Nc1ncnc2c1N=C(c1ccc3c(c1)OCO3)CC(c1ccc([N+](=O)[O-])cc1)N2 (stereo not given) ?
inactive

###

Tested on: OVCAR-8 ovarian
Assay: NCI-60 one-dose screen, 48 h (100 = growth as untreated, 0 = no growth, -100 = all killed)
Details: 10 µM unless noted
About 83,000 compounds went through this panel and 20% of them were active in at least one assay; those are over-represented in the sample as a whole.
Please go through the items and note down their growth.
Answers are plain numbers, in %.

# annotated cases, reported growth shown
{"columns": ["MOLECULE", "MEASURED_METRIC", "REPORTED_MEASUREMENT"],
 "data": [
  ["c1ccc(C2=NN[C@H](c3cn(-c4ccccc4)nc3-c3ccccc3)C2)cc1", "growth", 35.6],
  ["CCOC(=O)c1cn2ncnc(Oc3ccc(NC(=O)NC4CCCCC4)c(Cl)c3)c2c1C", "growth", 74]
]}

Consider the following items and state reported growth for each.
1. O=C(N/N=C/c1ccc(F)cc1)c1ccc(C(F)(F)F)nc1Nc1cccc(C(F)(F)F)c1
2. COc1ccc(NC(=O)c2sc3nc(C)c(C(=O)/C=C/c4cccc(OC)c4)cc3c2N)cc1
3. O=C1CNC(c2ccccc2)C(c2ccccc2)N1 (stereo not given)
4. C=C(C)[C@@H]1CC[C@]2(C(=O)O)CC[C@]3(C)[C@H](CC[C@@H]4[C@@]5(C)C[C@@H](Cc6cn(CCO[C@@H]7O[C@H](COC(C)=O)[C@H](OC(C)=O)[C@H](OC(C)=O)[C@H]7OC(C)=O)nn6)[C@H](O)C(C)(C)[C@@H]5CC[C@]43C)[C@@H]12

1. 9.33
2. 11.6
3. 98
4. 77.8

###

Test system: ACHN renal
Experiment: NCI-60 one-dose screen, 48 h (100 = growth as untreated, 0 = no growth, -100 = all killed)
Settings: 10 µM unless noted
This is part of a sample that, as a whole, favours compounds with a hit. Of some 83,000 tested, about 20% had one in any assay.
Entries whose growth is below 90% take 1 (yes); entries at or above 90% take 0 (no).

Below are worked cases with known answers.
{"columns": ["MOLECULE", "DISCRETE_LABEL"],
 "data": [
  ["CCOC(=O)c1cnc2ccccc2c1Cl", "0 (no)"],
  ["O=C1c2cccc3cccc(c23)C(=O)N1N1C(=O)c2cccc3c(N4CCOCC4)ccc(c23)C1=O", "0 (no)"],
  ["CCCCCCCCCCCCCCCC(N)c1ccccc1 (stereo not given)", "1 (yes)"]
]}

Now consider the entry below.
# TODO verify growth < 90% strictly for this molecule: "CO[C@H]1/C=C(/C)CCC[C@H](C)[C@H](O)[C@@H](C)C(=O)C(C)(C)[C@@H](O)CC(=O)O[C@@H]1/C(C)=C/c1csc(C)n1"
1 (yes)

###

Test system: HT29 colon
Assay: NCI-60 one-dose screen, 48 h (100 = growth as untreated, 0 = no growth, -100 = all killed)
Conditions: 10 µM unless noted
About 83,000 compounds went through this panel and 20% of them were active in at least one assay; those are over-represented in the sample as a whole.
MEASURED_METRIC: growth (%)
Answers are plain numbers, in %.

{"columns": ["SMILES_STR", "MEASURED_METRIC", "REPORTED_MEASUREMENT"],
 "data": [
  ["Cc1ccc(CNc2ccc(Cl)cc2NCc2ccc(C)c(O)c2)cc1O", "growth", 49.1],
  ["CN1CCN(c2ccc(NC(=O)c3nc4ccc5[nH]ncc5c4c4c3CCCC4)cc2C(F)(F)F)CC1", "growth", 20.5],
  ["O=[N+]([O-])c1ccc(S(=O)(=O)N2CCN(C3=NS(=O)(=O)c4ccccc4N3c3ccccc3)CC2)cc1", "growth", 110]
]}

Can you look up growth on HT29 colon for "C=C(C)[C@@H]1CC[C@]2(C(=O)N3CCN(C)CC3)CC[C@]3(C)[C@H](CC[C@@H]4[C@@]5(C)CC(=C/c6ccncc6)/C(=N/O)C(C)(C)[C@@H]5CC[C@]43C)[C@@H]12" ?
41.1

###

System: SR leukemia
Test: NCI-60 one-dose screen, 48 h
Details: 10 µM unless noted
The panel holds about 83,000 compounds, 20% with a hit somewhere; the sample as a whole holds those more often. Active and inactive are the calls of the source. The calls were made as follows: active = growth percent below 10; inactive = the rest.
Respond with a class label; see active, inactive

{"columns": ["COMPOUND", "DISCRETE_LABEL"],
 "data": [
  ["N#CC1=C(N)Oc2c(sc3c(Br)cccc23)C1c1ccc(F)cc1 (stereo not drawn)", "active"]
]}

Hey, what did the test say about "CN(C)CC(=O)Nc1ccc2ncnc(Nc3ccc(Oc4cccc(C(F)(F)F)c4)c(Cl)c3)c2c1" ?
active

Hey, what did the test say about "CN1CCN(Cc2ccc3c(NNC(=O)c4ccccc4)nc4cc(F)ccc4n23)CC1" ?
active

Hey, what did the test say about CN(C)CCCC1(c2ccc(F)cc2)OCc2cc(-c3cncc4ccccc34)ccc21 (stereo not drawn) ?
active

Hey, what did the test say about "COC(=O)c1c2c(c[n+]([O-])c1C)C(=O)C(NCc1ccccc1)=CC2=O" ?
active

Hey, what did the test say about CC(C)NC1CCC(Nc2ccnc3cc(Cl)ccc23)CC1 (stereo not drawn) ?
inactive

Hey, what did the test say about "O=C(CSc1nc2ccc([N+](=O)[O-])cc2[nH]1)Nc1cccc(C(F)(F)F)c1" ?
inactive

Hey, what did the test say about "N#Cc1c(N)nnn1Cc1cc(=O)oc2c1ccc1ccccc12" ?
inactive

Hey, what did the test say about "O=C1c2ccc3c4ccc5c6c(ccc(c7ccc(c2c37)C(=O)N1CCC[P+](c1ccccc1)(c1ccccc1)c1ccccc1)c64)C(=O)N(CCC[P+](c1ccccc1)(c1ccccc1)c1ccccc1)C5=O" ?
inactive

###

Tested on: MDA-MB-435 melanoma
Test: NCI-60 one-dose screen, 48 h (100 = growth as untreated, 0 = no growth, -100 = all killed)
Settings: 10 µM unless noted
The panel holds about 83,000 compounds, 20% with a hit somewhere; the sample as a whole holds those more often.
MEASURED_METRIC: growth (%)
Answers are plain numbers, in %.

{"columns": ["COMPOUND", "TARGET_DESC", "MEASURED_METRIC", "REPORTED_MEASUREMENT"],
 "data": [
  ["c1ccc(C2=NN[C@H](c3cn(-c4ccccc4)nc3-c3ccccc3)C2)cc1", "MDA-MB-435 melanoma", "growth", 67],
  ["COc1ccc2[nH]cc(C(c3cc(F)cc(F)c3)c3c[nH]c4ccc(OC)cc34)c2c1", "MDA-MB-435 melanoma", "growth", 93.4],
  ["CS(=O)(=O)c1cccc(-c2c(-c3cccc(OS(N)(=O)=O)c3)nc3sccn23)c1", "MDA-MB-435 melanoma", "growth", 102],
  ["O=[N+]([O-])c1ccc(-c2nc(N3CCOCC3)c3c4c(sc3n2)CCCC4)cc1", "MDA-MB-435 melanoma", "growth", 99.1]
]}

Consider the following items and state reported growth for each.
1. Brc1c2c(c(Br)c3ccccc13)CCCC2
2. O=C1c2cccc(NCCN=Cc3cc(O)ccc3O)c2C(=O)c2c(NCCN=Cc3cc(O)ccc3O)cccc21
3. Cc1nnc(-n2c(O)cc(=O)n(-c3ccccc3)c2=S)nc1/C=C/c1ccc(N(C)C)cc1
4. COc1ccc(C(=O)C2C(c3ccc(OC)cc3)CN(C)C23C(=O)Nc2ccccc23)cc1 (centres undefined)

1. 111
2. -5.74
3. 24.8
4. 97.6

Looking for the measured growth of "Cc1nc(-c2ccccc2)cc2c(O)c(C(=O)NN)[nH]c(=O)c12" , can you help?
109
